molecular target: USP24 (UniProt Q9UPU5); assay: log2 ratio of Biotin-Ahx-Ub-VS probe labelling (fragment/DMSO); higher = less target engagement (more negative = stronger competition), active = hit call of the paper (q ≤ 0.05, log2 ratio ≤ -1); settings: compound concentration: 200 uM; treatment time: 3 h
Sequence (Q9UPU5 whole entry, the tested form may be a part): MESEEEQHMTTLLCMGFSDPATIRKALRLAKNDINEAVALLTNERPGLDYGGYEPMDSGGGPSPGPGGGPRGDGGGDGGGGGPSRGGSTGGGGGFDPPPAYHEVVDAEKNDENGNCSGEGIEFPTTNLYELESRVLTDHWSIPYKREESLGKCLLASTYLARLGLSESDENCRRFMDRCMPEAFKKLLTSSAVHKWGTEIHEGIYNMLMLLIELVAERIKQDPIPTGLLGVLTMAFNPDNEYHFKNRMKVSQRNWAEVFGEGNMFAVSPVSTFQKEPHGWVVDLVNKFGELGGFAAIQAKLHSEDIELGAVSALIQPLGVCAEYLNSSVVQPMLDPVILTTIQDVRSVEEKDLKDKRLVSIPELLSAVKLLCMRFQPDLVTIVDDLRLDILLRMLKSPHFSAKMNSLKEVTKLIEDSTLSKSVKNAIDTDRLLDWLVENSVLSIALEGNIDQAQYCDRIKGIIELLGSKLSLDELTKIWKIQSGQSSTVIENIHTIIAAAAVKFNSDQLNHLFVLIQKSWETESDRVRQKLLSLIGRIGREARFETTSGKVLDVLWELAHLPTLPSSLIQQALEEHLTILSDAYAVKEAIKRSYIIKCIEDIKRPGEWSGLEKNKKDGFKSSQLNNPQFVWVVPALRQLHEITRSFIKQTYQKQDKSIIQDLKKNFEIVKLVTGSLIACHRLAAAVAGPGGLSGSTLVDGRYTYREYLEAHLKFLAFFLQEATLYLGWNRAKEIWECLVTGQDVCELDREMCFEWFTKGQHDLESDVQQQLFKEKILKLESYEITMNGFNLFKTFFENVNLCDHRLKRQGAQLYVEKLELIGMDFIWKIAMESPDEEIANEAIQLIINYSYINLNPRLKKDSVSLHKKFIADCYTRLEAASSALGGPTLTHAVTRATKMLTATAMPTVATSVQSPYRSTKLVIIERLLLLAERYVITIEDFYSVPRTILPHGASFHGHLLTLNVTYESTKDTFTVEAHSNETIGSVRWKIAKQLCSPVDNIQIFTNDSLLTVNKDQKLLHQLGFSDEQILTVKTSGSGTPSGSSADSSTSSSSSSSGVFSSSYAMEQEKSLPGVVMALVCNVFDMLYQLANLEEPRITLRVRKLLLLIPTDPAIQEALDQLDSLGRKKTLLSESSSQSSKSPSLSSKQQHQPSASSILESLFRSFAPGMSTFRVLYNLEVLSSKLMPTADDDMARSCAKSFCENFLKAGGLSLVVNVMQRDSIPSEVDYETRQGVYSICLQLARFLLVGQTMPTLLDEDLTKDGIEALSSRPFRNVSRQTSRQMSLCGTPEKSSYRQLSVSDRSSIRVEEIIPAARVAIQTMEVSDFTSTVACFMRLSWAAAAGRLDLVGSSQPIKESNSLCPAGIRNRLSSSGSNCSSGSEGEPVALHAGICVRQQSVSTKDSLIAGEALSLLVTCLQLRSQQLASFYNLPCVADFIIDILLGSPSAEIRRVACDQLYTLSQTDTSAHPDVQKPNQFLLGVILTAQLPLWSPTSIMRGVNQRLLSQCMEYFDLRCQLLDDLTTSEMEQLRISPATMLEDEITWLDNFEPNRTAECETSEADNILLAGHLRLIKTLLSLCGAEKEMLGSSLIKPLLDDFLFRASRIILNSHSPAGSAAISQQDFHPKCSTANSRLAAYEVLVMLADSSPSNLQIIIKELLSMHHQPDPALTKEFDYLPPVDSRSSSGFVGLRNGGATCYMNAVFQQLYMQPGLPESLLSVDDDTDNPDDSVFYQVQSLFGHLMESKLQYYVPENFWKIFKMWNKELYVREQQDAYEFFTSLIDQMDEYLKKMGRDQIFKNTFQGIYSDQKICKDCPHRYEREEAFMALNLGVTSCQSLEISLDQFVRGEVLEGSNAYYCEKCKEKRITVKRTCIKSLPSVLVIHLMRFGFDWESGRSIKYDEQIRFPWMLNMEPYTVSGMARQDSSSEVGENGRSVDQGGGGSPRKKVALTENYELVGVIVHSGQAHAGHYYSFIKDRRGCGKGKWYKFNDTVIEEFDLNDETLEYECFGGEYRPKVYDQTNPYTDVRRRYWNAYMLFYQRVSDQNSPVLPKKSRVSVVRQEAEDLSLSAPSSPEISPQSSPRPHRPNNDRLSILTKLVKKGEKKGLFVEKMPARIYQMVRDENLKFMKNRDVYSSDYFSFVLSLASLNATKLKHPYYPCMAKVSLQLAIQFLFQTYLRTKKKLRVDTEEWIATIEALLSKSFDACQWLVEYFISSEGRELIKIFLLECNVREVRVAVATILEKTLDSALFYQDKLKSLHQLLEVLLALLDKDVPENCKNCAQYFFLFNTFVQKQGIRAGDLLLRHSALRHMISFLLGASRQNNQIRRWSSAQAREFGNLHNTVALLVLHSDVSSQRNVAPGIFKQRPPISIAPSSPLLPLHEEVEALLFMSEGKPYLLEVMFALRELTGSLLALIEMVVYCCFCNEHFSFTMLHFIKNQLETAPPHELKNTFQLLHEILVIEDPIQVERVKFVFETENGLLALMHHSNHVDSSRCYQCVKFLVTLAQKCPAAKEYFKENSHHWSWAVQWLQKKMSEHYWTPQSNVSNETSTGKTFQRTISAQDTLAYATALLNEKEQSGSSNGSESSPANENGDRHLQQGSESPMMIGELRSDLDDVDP
Known log2 ratio of Biotin-Ahx-Ub-VS probe labelling of a selection of compounds
Could you keep your reply to the number by itself?

Previously resolved entries follow.
compound="CC(NC(=O)CCl)c1cccc(Cl)c1 (centres undefined)" quantitative_readout=-0.342
compound=NS(=O)(=O)c1ccc(Cl)c(NC(=O)CCl)c1 quantitative_readout=-0.149
compound=O=C(CCl)Nc1cc(Cl)ccc1C(=O)O quantitative_readout=-0.0569
compound=O=C(CCl)NCCC1=CCCCC1 quantitative_readout=-0.0898
compound=CCCn1nccc1NC(=O)CCl quantitative_readout=-0.693

Result for Cc1ccccc1CN(C)C(=O)CCl , tested on USP24 (UniProt Q9UPU5), log2 ratio of Biotin-Ahx-Ub-VS probe labelling: -1.38

The reported log2 ratio of Biotin-Ahx-Ub-VS probe labelling value, USP24 (UniProt Q9UPU5), for Cc1ccc(N(CCC#N)C(=O)CCl)cc1C reads -1.05

The recorded log2 ratio of Biotin-Ahx-Ub-VS probe labelling with USP24 (UniProt Q9UPU5) for O=C(CCl)NC1CCC2(CC1)OCCO2 was -0.301

Value sought: log2 ratio of Biotin-Ahx-Ub-VS probe labelling, system USP24 (UniProt Q9UPU5), item Cl.Cn1nccc1C(NC(=O)CCl)c1ccccc1 (centres undefined) . Result: -0.00471

Note to self: log2 ratio of Biotin-Ahx-Ub-VS probe labelling of O=C(CCl)N1CCOC(c2cccc(F)c2)C1 (centres undefined) with USP24 (UniProt Q9UPU5) was -1.13

---

target: USP16 (UniProt Q9Y5T5); experiment: log2 ratio of Biotin-Ahx-Ub-VS probe labelling (fragment/DMSO); higher = less target engagement (more negative = stronger competition), active = hit call of the paper (q ≤ 0.05, log2 ratio ≤ -1); conditions: compound concentration: 200 uM; treatment time: 3 h
Sequence (Q9Y5T5 whole entry, looked up, the tested form may be a part): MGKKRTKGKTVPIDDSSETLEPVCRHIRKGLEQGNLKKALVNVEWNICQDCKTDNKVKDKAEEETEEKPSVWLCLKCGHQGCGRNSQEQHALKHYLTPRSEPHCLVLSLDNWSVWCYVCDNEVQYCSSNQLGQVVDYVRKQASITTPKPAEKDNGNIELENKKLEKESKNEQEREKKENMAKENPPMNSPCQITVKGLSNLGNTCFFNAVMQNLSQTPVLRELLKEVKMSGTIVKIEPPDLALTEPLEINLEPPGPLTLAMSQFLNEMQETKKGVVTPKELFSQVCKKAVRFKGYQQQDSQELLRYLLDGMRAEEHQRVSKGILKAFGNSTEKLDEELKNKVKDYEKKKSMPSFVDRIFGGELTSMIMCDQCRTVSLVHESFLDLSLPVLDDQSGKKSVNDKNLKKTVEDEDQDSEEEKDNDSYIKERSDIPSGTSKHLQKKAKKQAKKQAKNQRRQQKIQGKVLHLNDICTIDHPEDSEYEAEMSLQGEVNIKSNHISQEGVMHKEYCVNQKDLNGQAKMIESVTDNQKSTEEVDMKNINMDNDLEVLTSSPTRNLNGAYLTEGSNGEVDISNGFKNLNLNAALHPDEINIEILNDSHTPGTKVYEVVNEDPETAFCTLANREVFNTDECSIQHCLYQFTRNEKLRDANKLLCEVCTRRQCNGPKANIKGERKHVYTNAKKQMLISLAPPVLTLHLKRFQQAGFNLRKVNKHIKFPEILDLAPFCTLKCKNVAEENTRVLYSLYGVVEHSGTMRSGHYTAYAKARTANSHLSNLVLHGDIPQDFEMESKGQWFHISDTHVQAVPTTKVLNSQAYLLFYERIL
Reported metric: log2 ratio of Biotin-Ahx-Ub-VS probe labelling
Give only the figure.

Example cases with answers are listed next.
molecule=Cc1ccc(C(=O)NCCNC(=O)CCl)cc1 quantitative_readout=-0.0901
molecule=Cc1ccc(CN(CCO)C(=O)CCl)cc1 quantitative_readout=0.361
molecule=O=C(CCl)NC1CCN(C(=O)C2CCCCC2)CC1 quantitative_readout=-0.0778
molecule="COCC1C=CCCN1C(=O)CCl (centres undefined)" quantitative_readout=-0.0544
molecule="Cl.O=C(CCl)N1CCCC(c2ncc[nH]2)C1 (centres undefined)" quantitative_readout=-0.216
molecule="CC(NC(=O)CCl)c1csc(-c2ccccc2)n1.Cl (centres undefined)" quantitative_readout=-1.03

Let us examine a further case.
Value of measured log2 ratio of Biotin-Ahx-Ub-VS probe labelling for the entry Cc1nc(CN2CCN(C(=O)CCl)CC2)cs1 : -0.55

---

biological target: VCPIP1 (UniProt Q96JH7); test: log2 ratio of Biotin-Ahx-Ub-VS probe labelling (fragment/DMSO); higher = less target engagement (more negative = stronger competition), active = hit call of the paper (q ≤ 0.05, log2 ratio ≤ -1); details: compound concentration: 200 uM; treatment time: 3 h
Sequence (Q96JH7 whole entry, the tested form may be a part): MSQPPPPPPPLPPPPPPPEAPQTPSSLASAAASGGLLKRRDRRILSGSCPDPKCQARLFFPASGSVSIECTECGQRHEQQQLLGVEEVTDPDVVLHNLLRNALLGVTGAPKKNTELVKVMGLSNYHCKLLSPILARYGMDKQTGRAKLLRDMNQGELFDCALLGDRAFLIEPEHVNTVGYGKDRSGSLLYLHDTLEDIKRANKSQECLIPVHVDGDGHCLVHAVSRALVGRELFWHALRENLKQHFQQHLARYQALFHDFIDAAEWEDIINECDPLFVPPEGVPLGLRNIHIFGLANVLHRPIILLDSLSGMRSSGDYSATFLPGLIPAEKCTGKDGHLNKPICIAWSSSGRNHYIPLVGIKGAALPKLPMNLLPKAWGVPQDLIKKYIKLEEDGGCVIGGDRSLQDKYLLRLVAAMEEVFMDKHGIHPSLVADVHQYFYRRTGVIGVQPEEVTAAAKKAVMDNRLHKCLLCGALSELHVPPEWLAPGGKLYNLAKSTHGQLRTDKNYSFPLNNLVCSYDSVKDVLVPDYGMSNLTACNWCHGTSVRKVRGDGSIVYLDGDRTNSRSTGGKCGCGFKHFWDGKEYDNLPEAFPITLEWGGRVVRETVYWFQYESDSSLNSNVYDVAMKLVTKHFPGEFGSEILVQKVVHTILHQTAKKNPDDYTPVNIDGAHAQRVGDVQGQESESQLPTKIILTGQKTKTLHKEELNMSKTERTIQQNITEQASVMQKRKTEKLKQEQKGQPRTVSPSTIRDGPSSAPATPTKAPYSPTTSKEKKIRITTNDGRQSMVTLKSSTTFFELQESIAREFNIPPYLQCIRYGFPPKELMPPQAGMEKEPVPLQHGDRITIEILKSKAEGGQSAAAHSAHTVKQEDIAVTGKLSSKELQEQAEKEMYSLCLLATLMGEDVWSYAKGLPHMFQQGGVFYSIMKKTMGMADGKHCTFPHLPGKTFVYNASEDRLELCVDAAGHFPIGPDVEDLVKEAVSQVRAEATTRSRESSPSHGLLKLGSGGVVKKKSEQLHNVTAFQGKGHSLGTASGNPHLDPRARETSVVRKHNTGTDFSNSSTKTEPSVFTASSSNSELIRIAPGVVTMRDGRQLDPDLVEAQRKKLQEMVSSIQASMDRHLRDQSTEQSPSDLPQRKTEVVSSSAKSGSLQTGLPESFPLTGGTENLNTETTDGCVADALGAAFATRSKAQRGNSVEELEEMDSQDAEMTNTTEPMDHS
Each entry below lists one item and its recorded log2 ratio of Biotin-Ahx-Ub-VS probe labelling value.
Answer with a bare number; do not write a unit.

Known log2 ratio of Biotin-Ahx-Ub-VS probe labelling results, listed for orientation:
compound=O=C(CCl)N1CCc2[nH]c3ccccc3c2C1 quantitative_readout=-2.89
compound=O=C(CCl)NCCc1cccc2ccccc12 quantitative_readout=-1.04
compound="O=C(CCl)N1CCC(c2ccn[nH]2)C1 (configuration not stated)" quantitative_readout=-0.333
compound=Cc1ncc2c(n1)CCN(C(=O)CCl)C2 quantitative_readout=0.323

log2 ratio of Biotin-Ahx-Ub-VS probe labelling in this record for O=C(CCl)N1CCN2C(=O)CCC2C1 (configuration not stated) : -0.0347

Looking up O=C(CCl)NCc1noc(C2CC2)n1 , I see its log2 ratio of Biotin-Ahx-Ub-VS probe labelling listed as -0.61

The reported value for CC1CCc2onc(CNC(=O)CCl)c2C1 (configuration not stated) in terms of log2 ratio of Biotin-Ahx-Ub-VS probe labelling is -1.39

These entries and their values trace back to the supplement of paper PMC11732987.
